- Tested on: Trichuris muris adult worms
- protocolSummary: mean motility score (Paragon pixel variance) of adult worms (arbitrary units); higher = more motile worms, i.e. less anthelmintic effect; extreme values may be limits of the assay
- conditionInfo: 100 µM; 24 h
Output met for mean motility score not less than 2000; output not met otherwise.

- compound: "CC[C@H]1[C@H]2CC3[C@@H]4N(C)c5ccccc5[C@]45C[C@H]([C@@H]2C5O)N3[C@@H]1O (stereo partly specified)"
  classLabel: "not met"
- compound: "CC[C@@H](CO)NC(=O)[C@@H]1C=C2c3cccc4[nH]cc(c34)C[C@H]2N(C)C1.O=C(O)/C=C\\C(=O)O [methylergonovine maleate]"
  classLabel: "met"

Now consider the entry below.
-- ask Hi, just wondering whether CC(C)C[C@H]1C(=O)N2CCC[C@H]2[C@]2(O)O[C@](NC(=O)C3C=C4c5cccc6[nH]c(Br)c(c56)C[C@H]4N(C)C3)(C(C)C)C(=O)N12.CS(=O)(=O)O (stereo partly specified) [bromocriptine methanesulfonate] shows mean motility score of 2000 or higher.
-- reply met
